System: Anti-Targets
Test: LYPLA1/LYPLA2 inhibition and anti-target count – cell lysate, competitive ABPP, HEK293T proteome, set 2, selectivity assay for LYPLA1 inhibitor project, late-stage follow-up (AID 652018)
Conditions: competitive ABPP FP-PEG-Rh gel; anti-targets hit, at 10 µM
Reported anti-target count values follow for various compounds
The response must contain the number and no unit.

# example entries with known answers
O=C(CN1CCN(C(=O)n2nccn2)CC1)Nc1cc(C(F)(F)F)ccc1Cl    0
O=C(CN1CCN(C(=O)n2nc(Br)c(Br)n2)CC1)Nc1cc(C(F)(F)F)ccc1Cl    0
O=C(CN1CCN(C(=O)n2ncc(-c3ccc(-c4ccccc4)cc3)n2)CC1)Nc1cc(C(F)(F)F)ccc1Cl    0
O=C(CN1CCN(C(=O)n2cc(C(O)(c3ccccc3)c3ccccc3)nn2)CC1)Nc1cc(C(F)(F)F)ccc1Cl    0
COc1ccc(N2CCN(C(=O)n3cncn3)CC2)cc1    0

Q: Could you tell me which anti-target count is on file for O=C(N1CCN(c2ccc(Cl)c(Cl)c2)CC1)n1ncc(C(O)(c2ccccc2)c2ccccc2)n1 ?
Result: 0

Q: Please answer likewise for O=C(CN1CCN(C(=O)n2ncc(C(O)(c3ccccc3)c3ccccc3)n2)CC1)Nc1cc(C(F)(F)F)ccc1Cl
Result: 1

Q: And the next one, O=C(CN1CCN(C(=O)n2nc(Br)nc2Br)CC1)Nc1cc(C(F)(F)F)ccc1Cl ?
Result: 0

Q: Next entry: COc1ccc(N2CCN(C(=O)n3nc(Br)c(Br)n3)CC2)cc1
Result: 2
